The values you see were collected from patent US9624217B2.

assayTarget: UniProt:P51449
Sequence (P51449 other isoform, or with tags, fused parts or gaps): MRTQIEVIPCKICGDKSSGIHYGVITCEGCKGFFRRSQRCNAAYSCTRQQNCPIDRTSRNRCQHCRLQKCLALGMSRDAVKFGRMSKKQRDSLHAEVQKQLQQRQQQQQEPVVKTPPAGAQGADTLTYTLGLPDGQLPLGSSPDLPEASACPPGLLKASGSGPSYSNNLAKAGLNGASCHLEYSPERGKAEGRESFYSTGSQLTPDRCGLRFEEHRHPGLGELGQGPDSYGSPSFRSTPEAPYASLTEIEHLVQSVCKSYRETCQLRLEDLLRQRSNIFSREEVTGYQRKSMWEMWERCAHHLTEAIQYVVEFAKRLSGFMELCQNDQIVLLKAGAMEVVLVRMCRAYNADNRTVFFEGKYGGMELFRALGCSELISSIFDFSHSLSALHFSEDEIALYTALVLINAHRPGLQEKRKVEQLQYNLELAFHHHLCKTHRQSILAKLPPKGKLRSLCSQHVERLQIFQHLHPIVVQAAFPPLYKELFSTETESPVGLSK
experimentNotes: RORγt 5×RORE Assay in Jurkat Cells (Assay 2)
details: secreted Nanoluc luciferase 5×RORE reporter, 16-18 hrs, read-out: RORγt5X IC50 Range
Each entry below carries its recorded IC50.

Past entries and their recorded results:
| recordSmiles | IC50 |
| --- | --- |
| CC(C)[C@H]1c2ncc(C(=O)NCc3ccc(S(C)(=O)=O)cc3)cc2CN1Cc1ccc(C(F)(F)F)cc1 | < 100 nM |
| CCS(=O)(=O)c1ccc(CC(=O)Nc2cnc3c(c2)CN(Cc2ccc(Cl)cc2)[C@H]3C(C)C)cc1 | 100 to 1000 nM |
| CCS(=O)(=O)c1ccc(CNC(=O)c2cnc3c(c2)[C@@H](C)N(Cc2ccc(Cl)cc2)[C@H]3C(C)C)cc1 | < 100 nM |

Here's the next entry for you.
For CCS(=O)(=O)c1ccc(CC(=O)Nc2cnc3c(c2)CN(C[C@H]2CC[C@H](C(F)(F)F)CC2)[C@H]3C(C)C)cc1 , what is its reported IC50?
< 100 nM
